# credit: patent US20260297085A1

# subject.of.test: human JAK2 kinase domain (JH1) (Homo sapiens, UniProt O60674)
# Construct: recombinantly generated catalytic kinase (also known as JH1) domain of human JAK1, JAK2, JAK3 and TYK2
# Sequence (O60674 849-1124 limits assumed): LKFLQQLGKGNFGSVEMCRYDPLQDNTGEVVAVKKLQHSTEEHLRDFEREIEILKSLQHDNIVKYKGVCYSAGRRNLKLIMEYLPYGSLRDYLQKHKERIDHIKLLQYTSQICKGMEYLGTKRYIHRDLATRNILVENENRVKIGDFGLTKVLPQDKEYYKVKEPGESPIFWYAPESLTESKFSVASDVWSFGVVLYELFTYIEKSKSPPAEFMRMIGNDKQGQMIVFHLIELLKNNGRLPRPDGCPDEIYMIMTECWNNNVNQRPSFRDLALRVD
# assay.remarks: JH1 biochemical assay for JAK2 (ADP-Glo kinase assay, recombinant JH1 catalytic domain, JAK3-974 peptide, 15 μM ATP)
# condition.parameters: JAK2 JH1, ADP-Glo
# Protocol: Compounds of the disclosure were assessed for their ability to inhibit TYK2, JAK1, JAK2, and JAK3 activity. The inhibitory properties of the compounds of the disclosure described herein can be evidenced by testing in any one of the following protocols. The kinase activity of recombinantly generated catalytic kinase (also known as JH1) domain of human JAK1, JAK2, JAK3 and TYK2 were evaluated in a plate-based assay using the ADP-Glo™ Kinase Assay platform. […]
pIC50: −log10 of the molar value. Where a name gives a salt, the structure may show the parent alone.
quantity.name: pIC50

For orientation, consider the following solved cases.
Query the reported pIC50 for human JAK2 kinase domain (JH1) (Homo sapiens, UniProt O60674); item: C[C@@H]1CN(c2ccnn3cc(-c4cnn(C5CC6(COC6)C5)c4)cc23)C(=O)[C@]1(C#N)C1CC1
> 7.00

Then this compound: C[C@@H]1CN(c2ccnc3cc(-c4cnn(C)c4)oc23)C(=O)[C@]1(C#N)C1CC1
6.00 to 7.00

Now consider C[C@@H]1CN(c2nc(-c3cnn([C@H]4C[C@](C)(C#N)C4)c3)cn3ncc(F)c23)C(=O)[C@]1(C#N)C1CC1 and answer again.
> 7.00

Field entry: C[C@@H]1CN(c2nc(-c3ccc(N(C)C(=O)OC(C)(C)C)nc3)cn3nccc23)C(=O)[C@]1(C#N)C1CC1 [Example 266, trifluoroacetate]
> 7.00

Then this compound: C[C@@H]1CN(c2nc(-c3ccn(C)c(=O)c3)cn3nccc23)C(=O)[C@]1(C#N)C1CC1 [Example 261, trifluoroacetate]
6.00 to 7.00

Item: C[C@@H]1CN(c2nc(-c3cnc4[nH]ccc4c3)cn3nccc23)C(=O)[C@]1(C#N)C1CC1
6.00 to 7.00

Provide pIC50 for all items below, preserving their order.
1. C[C@@H]1CN(c2nc(-c3ccc(=O)n(C)c3)cn3nccc23)C(=O)[C@]1(C#N)C1CC1
2. CO[C@H]1C[C@H](n2cc(-c3cc4ncsc4c(N4C[C@@H](C)[C@@](C#N)(C5CC5)C4=O)n3)cn2)C1
3. COc1ncccc1-c1cn2nccc2c(N2C[C@@H](C)[C@@](C#N)(C3CC3)C2=O)n1
4. C[C@@H]1CN(c2cc(-c3cnn(C)c3)cc3ncnn23)C(=O)[C@]1(C#N)C1CC1
5. C[C@@H]1CN(c2nc(-c3cnn(C)c3)cc3ncsc23)C(=O)[C@]1(C#N)C1CC1
6. Cc1cc(-c2cc(N3C[C@@H](C)[C@@](C#N)(C4CC4)C3=O)c3ccnn3c2)n[nH]1
7. Cc1cn(-c2cc3c(N4C[C@@H](C)[C@@](C#N)(C5CC5)C4=O)ccnn3c2)cn1
8. C[C@@H]1CN(c2ccnn3cc(-c4cnn(C56CC(C#N)(C5)C6)c4)cc23)C(=O)[C@]1(C#N)C1CC1

["6.00 to 7.00", "> 7.00", "5.30 to 6.00", "< 5.00", "> 7.00", "5.30 to 6.00", "6.00 to 7.00", "> 7.00"]

State the recorded pIC50 for every item in the following list.
1. C[C@@H]1CN(c2ccnn3cc(-n4cc(CC#N)cn4)cc23)C(=O)[C@]1(C#N)C1CC1
2. C[C@@H]1CN(c2nc(-c3ccn(C)n3)cn3nccc23)C(=O)[C@]1(C#N)C1CC1 [Example 229, trifluoroacetate]
3. C[C@@H]1CN(c2nc(-c3cnn(C)c3)cc3nccn23)C(=O)[C@]1(C#N)C1CC1
4. C[C@@H]1CN(c2nc(-c3cnn(C4(C)COC4)c3)cn3ncc(F)c23)C(=O)[C@]1(C#N)C1CC1
5. Cc1ccn(-c2cc3c(N4C[C@@H](C)[C@@](C#N)(C5CC5)C4=O)ccnn3c2)n1

1: 6.00 to 7.00; 2: < 5.00; 3: 5.00 to 5.30; 4: 6.00 to 7.00; 5: 5.30 to 6.00

List pIC50 for every entry below, keeping the order given.
1. C[C@@H]1CN(c2nc(-c3ncc[nH]3)cn3nccc23)C(=O)[C@]1(C#N)C1CC1 [Example 247, trifluoroacetate]
2. Cc1ncc(-c2cn3nccc3c(N3C[C@@H](C)[C@@](C#N)(C4CC4)C3=O)n2)s1
3. C[C@@H]1CN(c2ccnn3cc(-c4cnn(C5(CC#N)CC5)c4)cc23)C(=O)[C@]1(C#N)C1CC1
4. C[C@@H]1CN(c2n[nH]c3ncc(-c4cnn(C)c4)cc23)C(=O)[C@]1(C#N)C1CC1

1: < 5.00; 2: 6.00 to 7.00; 3: > 7.00; 4: 6.00 to 7.00
